Every entry's value here was drawn from patent US20260232682A1.

The entries below are paired with their reported activation at 1 µM.
# STUDY TARGET: [SALL4 ZF2]-[compound]-[CRBN/DDB1] ternary complex (Homo sapiens, UniProt Q96SW2+Q9UJQ4)
# Construct: SALL4 ZF2
# Sequence (Q9UJQ4 410-432 limits assumed): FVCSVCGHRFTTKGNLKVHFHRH
# Sequence (Q96SW2 whole entry): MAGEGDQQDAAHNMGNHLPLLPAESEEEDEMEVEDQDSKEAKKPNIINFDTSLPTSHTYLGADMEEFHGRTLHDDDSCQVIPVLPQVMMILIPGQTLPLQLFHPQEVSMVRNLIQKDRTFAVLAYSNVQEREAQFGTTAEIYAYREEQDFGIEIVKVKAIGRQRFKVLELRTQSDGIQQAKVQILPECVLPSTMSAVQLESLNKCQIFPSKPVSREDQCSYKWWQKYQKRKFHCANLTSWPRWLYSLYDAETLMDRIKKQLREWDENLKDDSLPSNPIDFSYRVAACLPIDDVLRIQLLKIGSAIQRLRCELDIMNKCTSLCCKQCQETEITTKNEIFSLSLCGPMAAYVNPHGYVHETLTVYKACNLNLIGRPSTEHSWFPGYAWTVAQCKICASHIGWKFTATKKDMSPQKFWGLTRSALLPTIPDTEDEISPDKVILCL
# Sequence (Q16531 whole entry partner): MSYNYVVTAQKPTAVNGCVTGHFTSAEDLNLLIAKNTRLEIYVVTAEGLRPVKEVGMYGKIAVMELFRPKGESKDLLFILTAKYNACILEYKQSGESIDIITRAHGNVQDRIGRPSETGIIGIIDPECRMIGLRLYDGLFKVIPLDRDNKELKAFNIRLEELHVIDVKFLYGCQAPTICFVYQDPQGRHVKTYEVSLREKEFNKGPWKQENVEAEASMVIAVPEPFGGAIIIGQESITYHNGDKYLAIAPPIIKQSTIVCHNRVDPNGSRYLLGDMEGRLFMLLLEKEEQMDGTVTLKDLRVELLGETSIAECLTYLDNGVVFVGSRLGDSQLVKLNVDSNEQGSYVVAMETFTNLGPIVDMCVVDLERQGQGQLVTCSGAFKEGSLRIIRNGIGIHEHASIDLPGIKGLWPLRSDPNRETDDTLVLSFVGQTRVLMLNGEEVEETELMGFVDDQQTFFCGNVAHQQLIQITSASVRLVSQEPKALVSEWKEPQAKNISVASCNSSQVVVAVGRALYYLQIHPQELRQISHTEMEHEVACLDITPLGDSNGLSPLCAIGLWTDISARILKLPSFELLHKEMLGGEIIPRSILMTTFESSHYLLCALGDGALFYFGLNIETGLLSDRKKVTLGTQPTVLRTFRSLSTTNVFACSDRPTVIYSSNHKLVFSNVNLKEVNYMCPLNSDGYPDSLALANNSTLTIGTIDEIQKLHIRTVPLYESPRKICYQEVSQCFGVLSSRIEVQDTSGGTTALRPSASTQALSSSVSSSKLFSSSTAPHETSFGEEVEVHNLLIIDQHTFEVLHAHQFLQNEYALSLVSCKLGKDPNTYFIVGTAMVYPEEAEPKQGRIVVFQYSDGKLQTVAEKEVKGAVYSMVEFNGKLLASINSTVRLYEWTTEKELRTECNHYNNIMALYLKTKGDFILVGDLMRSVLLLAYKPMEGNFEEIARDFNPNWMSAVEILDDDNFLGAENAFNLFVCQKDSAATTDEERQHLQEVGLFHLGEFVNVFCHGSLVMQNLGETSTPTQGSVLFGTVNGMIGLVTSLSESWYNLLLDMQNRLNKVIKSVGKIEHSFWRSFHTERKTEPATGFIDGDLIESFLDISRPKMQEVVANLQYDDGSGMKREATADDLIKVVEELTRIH
# TEST SUMMARY: AlphaLISA assay for off-target recruitment detection, SALL4 ZF2
# Format: binding
# TEST CONTEXT: 1 μM compound; normalized to Lenalidomide; read-out: Normalized ternary complex response, SALL4 ZF2

Cc1nc2cc(COC(=O)Nc3ccc(-c4ccccc4)nc3)ccc2cc1C1CCC(=O)NC1=O (centres unmarked)	< 10%

input: Any idea what its activation at 1 µM is? The compound is Cc1nc2cc(COC(=O)Nc3cccc(OC(F)(F)F)c3)ccc2cc1C1CCC(=O)NC1=O (centres unmarked)
output: < 10%

input: Same for `Cc1nc2ccc(COC(=O)Nc3cc(C(C)(C)C)no3)cc2cc1N1CCC(=O)NC1=O`
output: 25 to 50%

input: Same for Cc1ccc(NC(=O)OCc2ccc3cc(C4CCC(=O)NC4=O)c(C)nc3c2)c(Cl)c1Cl (centres unmarked)
output: < 10%

input: Same for Cc1ccc(NC(=O)OCc2ccc3nc(C)c(C4CCC(=O)NC4=O)cc3c2)cc1Cl (centres unmarked)
output: 25 to 50%

###

# STUDY TARGET: GSPT1-HiBiT protein in GSPT1-HiBiT HEK293 cells (Homo sapiens, UniProt P15170+Q96SW2)
# Construct: endogenous in cells; host or cells: HEK293 (CRISPR/Cas9 knock-in of HiBiT at the GSPT1 locus)
# Sequence (P15170 whole entry): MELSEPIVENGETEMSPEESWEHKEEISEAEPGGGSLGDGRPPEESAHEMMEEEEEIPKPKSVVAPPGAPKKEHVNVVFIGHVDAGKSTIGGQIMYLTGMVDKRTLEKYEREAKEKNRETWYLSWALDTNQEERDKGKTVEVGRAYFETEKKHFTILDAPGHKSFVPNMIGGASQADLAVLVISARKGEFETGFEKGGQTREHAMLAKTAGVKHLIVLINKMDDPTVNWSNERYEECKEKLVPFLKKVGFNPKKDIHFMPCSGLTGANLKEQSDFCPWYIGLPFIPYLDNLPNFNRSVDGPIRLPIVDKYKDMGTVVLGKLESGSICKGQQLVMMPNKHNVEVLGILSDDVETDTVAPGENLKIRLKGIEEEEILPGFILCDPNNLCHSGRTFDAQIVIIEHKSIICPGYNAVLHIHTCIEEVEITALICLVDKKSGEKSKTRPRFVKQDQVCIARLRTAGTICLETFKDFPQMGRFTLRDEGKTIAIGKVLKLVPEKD
# Sequence (Q96SW2 whole entry): as the sequence (Q96SW2 whole entry) above
# Sequence (Q16531 whole entry partner): as the sequence (Q16531 whole entry partner) above
# TEST SUMMARY: GSPT1 degradation assay using HiBiT system (Nano-Glo HiBiT lytic assay)
# Format: cell-based
# TEST CONTEXT: 6 hours treatment, read-out: HiBiT lytic assay Geomean absolute DC50
The entries below are paired with their reported DC50.

Use these answered entries as a reference point.
Cc1ccc(NC(=O)OCc2cc(F)c3cc(C4CCC(=O)NC4=O)c(C)nc3c2)cc1Cl (stereo not shown)	10 to 50 nM
Cc1ccc(NC(=O)NCc2ccc3cc(N4CCC(=O)NC4=O)c(C)nc3c2)cc1Cl	50 to 100 nM
Cc1ncc(NC(=O)OCc2ccc3cc(C4CCC(=O)NC4=O)c(C)nc3c2)cc1Cl (stereo not shown)	< 10 nM
Cc1ccc(NC(=O)OCc2ccc3cc(N4CCC(=O)NC4=O)c(C)nc3c2)cc1Cl	10 to 50 nM
Cc1ccc(NC(=O)OCc2ccc3cc(C4CCC(=O)NC4=O)c(C)nc3c2F)cc1Cl (stereo not shown)	10 to 50 nM

input: Any idea what its DC50 is? The compound is Cc1nc2cc(COC(=O)Nc3cc(C4(C(F)(F)F)CC4)no3)ccc2cc1C1CCC(=O)NC1=O (stereo not shown)
output: < 10 nM

input: Same for Cc1nc2cc(COC(=O)Nc3cc(C(C)(C)C)n[nH]3)ccc2cc1C1CCC(=O)NC1=O (stereo not shown)
output: 10 to 50 nM

input: Same for Cc1nc2cc(COC(=O)NC3CCC(C(C)(C)C)CC3)ccc2cc1C1CCC(=O)NC1=O (stereo not shown)
output: 10 to 50 nM

input: Same for Cc1nc2cc(COC(=O)Nc3ccc(-c4ccccc4)nc3)ccc2cc1C1CCC(=O)NC1=O (stereo not shown)
output: < 10 nM

input: Same for Cc1nc2cc(COC(=O)Nc3cc(Cl)c(C)c(CN4CCOCC4)c3)ccc2cc1C1CCC(=O)NC1=O (stereo not shown)
output: < 10 nM

input: Same for Cc1nc2cc(COC(=O)Nc3cccc(-c4ccccc4)c3)ccc2cc1C1CCC(=O)NC1=O (stereo not shown)
output: 10 to 50 nM

###

# STUDY TARGET: [CK1α]-[compound]-[CRBN/DDB1] ternary complex (Homo sapiens, UniProt P48729+Q96SW2)
# Sequence (P48729 whole entry): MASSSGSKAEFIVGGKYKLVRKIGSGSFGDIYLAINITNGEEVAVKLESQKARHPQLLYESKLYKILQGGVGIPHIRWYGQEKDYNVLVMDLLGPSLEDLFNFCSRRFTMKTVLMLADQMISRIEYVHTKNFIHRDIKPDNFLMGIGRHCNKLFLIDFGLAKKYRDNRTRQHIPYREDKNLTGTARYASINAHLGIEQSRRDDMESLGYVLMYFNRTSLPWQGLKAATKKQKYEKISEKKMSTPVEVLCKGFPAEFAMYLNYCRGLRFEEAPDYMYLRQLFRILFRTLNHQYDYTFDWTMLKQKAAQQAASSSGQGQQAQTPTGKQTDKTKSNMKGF
# Sequence (Q96SW2 whole entry): as the sequence (Q96SW2 whole entry) above
# Sequence (Q16531 whole entry partner): as the sequence (Q16531 whole entry partner) above
# TEST SUMMARY: AlphaLISA assay for off-target recruitment detection, CK1α
# Type: binding
# TEST CONTEXT: 1 μM compound; normalized to FPFT-2216; read-out: Normalized ternary complex response, CK1α
The entries below are paired with their reported activation at 1 µM.

Cc1ccc(NC(=O)OCc2ccc3nc(C)c(N4CCC(=O)NC4=O)cc3c2)cc1Cl	< 10%

input: Any idea what its activation at 1 µM is? The compound is `Cc1ccc(NC(=O)OCc2ccc3cc(N4CCC(=O)NC4=O)c(C)nc3c2)cc1Cl`
output: < 10%

input: Same for Cc1nc2cc(COC(=O)Nc3ccc(Cl)c(Cl)c3)ccc2cc1C1CCC(=O)NC1=O (stereo not shown)
output: < 10%

input: Same for Cc1ccc(NC(=O)OCc2cc3nc(C)c(C4CCC(=O)NC4=O)cc3cc2F)cc1Cl (stereo not shown)
output: < 10%

input: Same for Cc1nc2cc(COC(=O)Nc3ccc(C(C)(C)C)c(Cl)c3)ccc2cc1C1CCC(=O)NC1=O (stereo not shown)
output: < 10%

input: Same for Cc1ccc(NC(=O)OCc2cc(F)c3cc(C4CCC(=O)NC4=O)c(C)nc3c2)cc1Cl (stereo not shown)
output: < 10%

###

# STUDY TARGET: [SALL4 ZF2]-[compound]-[CRBN/DDB1] ternary complex (Homo sapiens, UniProt Q96SW2+Q9UJQ4)
# Construct: SALL4 ZF2
# TEST SUMMARY: AlphaLISA assay for off-target recruitment detection, SALL4 ZF2
# Type: binding
# TEST CONTEXT: 1 μM compound; normalized to Lenalidomide; read-out: Normalized ternary complex response, SALL4 ZF2
EXPERIMENTAL ENDPOINT: activation at 1 µM

Cc1nc2cc(COC(=O)Nc3ccc(C(C)(C)C)c(Cl)c3)ccc2cc1C1CCC(=O)NC1=O (stereo not shown)	< 10%
Cc1ccc(NC(=O)OCc2ccc3cc([C@H]4CCC(=O)NC4=O)c(C)nc3c2)cc1Cl	< 10%
Cc1nc2cc(COC(=O)Nc3csc(-c4ccccc4)c3)ccc2cc1C1CCC(=O)NC1=O (stereo not shown)	< 10%
Cc1ccc(Nc2c(NCc3ccc4cc(C5CCC(=O)NC5=O)c(C)nc4c3)c(=O)c2=O)cc1Cl (stereo not shown)	< 10%
Cc1ncc(NC(=O)OCc2ccc3cc(C4CCC(=O)NC4=O)c(C)nc3c2)cc1Cl (stereo not shown)	< 10%

input: Any idea what its activation at 1 µM is? The molecule is Cc1ccc(NCC(=O)NCc2ccc3nc(C)c(C4CCC(=O)NC4=O)cc3c2)cc1Cl (stereo not shown)
output: 25 to 50%

input: Same for Cc1nc2cc(COC(=O)Nc3cccc(C(C)(C)C)c3)ccc2cc1C1CCC(=O)NC1=O (stereo not shown)
output: < 10%

input: Same for Cc1nc2cc(COC(=O)Nc3ccc(Cl)c(Cl)c3)ccc2cc1C1CCC(=O)NC1=O (stereo not shown)
output: < 10%

input: Same for Cc1ccc(NC(=O)OCc2ccc3cc(C4CCC(=O)NC4=O)c(C)nc3c2F)cc1Cl (stereo not shown)
output: < 10%

input: Same for `Cc1nc2ccc(COC(=O)NC3CCCCC3)cc2cc1N1CCC(=O)NC1=O`
output: ≥ 50%

input: Same for `Cc1ccc(NC(=O)OCc2ccc3cc(N4CCC(=O)NC4=O)c(C)nc3c2)cc1Cl`
output: < 10%

input: Same for Cc1nc2ccc(CNC(=O)C(=O)c3ccc(C(C)(C)C)cc3)cc2cc1C1CCC(=O)NC1=O (stereo not shown)
output: ≥ 50%

input: Same for Cc1nc2cc(COC(=O)NC3CCC(C(C)(C)C)CC3)ccc2cc1C1CCC(=O)NC1=O (stereo not shown)
output: < 10%

input: Same for Cc1nc2cc(COC(=O)Nc3cc(C(C)(C)C)on3)ccc2cc1C1CCC(=O)NC1=O (stereo not shown)
output: < 10%

input: Same for Cc1ccc(NC(=O)OCc2ccc3c(C)c(C4CCC(=O)NC4=O)c(C)nc3c2)cc1Cl (stereo not shown)
output: < 10%

input: Same for Cc1nc2cc(COC(=O)Nc3cc(C(C)(C)C)no3)ccc2cc1C1CCC(=O)NC1=O (stereo not shown)
output: < 10%

###

# STUDY TARGET: CRBN/DDB1 protein complex (Homo sapiens, UniProt Q96SW2)
# Sequence (Q96SW2 whole entry, species assumed): as the sequence (Q96SW2 whole entry) above
# Sequence (Q16531 whole entry partner, species assumed): as the sequence (Q16531 whole entry partner) above
# TEST SUMMARY: CRBN displacement TR-FRET assay
# TEST CONTEXT: Thalidomide-Red tracer, 6×His-CRBN/DDB1; read-out: CRBN binding Ki
pKi: −log10 of the molar value.
The entries below are paired with their reported pKi.

Use these answered entries as a reference point.
Cc1nc2cc(COC(=O)Nc3cc(C(C)(C)C)on3)ccc2cc1C1CCC(=O)NC1=O (centres unmarked)	> 6.30
Cc1ccc(NC(=O)OCc2cc3nc(C)c(C4CCC(=O)NC4=O)cc3cc2C)cc1Cl (centres unmarked)	< 6.00
Cc1ccc(NC(=O)OCc2cc(F)c3cc(C4CCC(=O)NC4=O)c(C)nc3c2)cc1Cl (centres unmarked)	< 6.00

input: Any idea what its pKi is? The compound is COc1cc(C)c(Cl)cc1NC(=O)OCc1ccc2cc(C3CCC(=O)NC3=O)c(C)nc2c1 (centres unmarked)
output: 6.00 to 6.30

input: Same for Cc1nc2cc(COC(=O)Nc3ccc(-c4ccccc4)nc3)ccc2cc1C1CCC(=O)NC1=O (centres unmarked)
output: > 6.30

input: Same for `Cc1nc2cc(COC(=O)Nc3cc(C(C)(C)C)no3)ccc2cc1N1CCC(=O)NC1=O`
output: 6.00 to 6.30

input: Same for Cc1ccc(-c2nnc(NCc3ccc4cc(C5CCC(=O)NC5=O)c(C)nc4c3)o2)cc1Cl (centres unmarked)
output: > 6.30

input: Same for Cc1nc2cc(COC(=O)Nc3cc(C4(C(F)(F)F)CC4)no3)ccc2cc1C1CCC(=O)NC1=O (centres unmarked)
output: > 6.30
